- measurement target: T1, His/Avi-CynoIL18BP (recombinant cynomolgus IL-18BP with His and Avi tags) (cynomolgus monkey)
- T1 chain: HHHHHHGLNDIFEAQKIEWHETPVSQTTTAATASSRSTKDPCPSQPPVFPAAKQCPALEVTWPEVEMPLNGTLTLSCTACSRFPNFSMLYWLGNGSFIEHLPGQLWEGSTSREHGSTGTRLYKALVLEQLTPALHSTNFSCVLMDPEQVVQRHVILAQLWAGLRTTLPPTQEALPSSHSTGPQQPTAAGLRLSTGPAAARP
- test summary: cell-based or functional assay
attribute measured: % of Max Gamma, human NK cells (%)

binder="anti-IL18BP antibody BP-11 (antibody, human IgG1, V domains shown) VH: QVQLQQSGAELAKPGASVKMSCKASGYTFTNYWMHWVKQRPGQGLEWIGHIDPSTGYTEYNQKFKDKATLTADKSSSTAYMQLSSLTSEDSAVYYCARGLGGLFGYWGQGTLVTVSA VL: DIQMTQSPSSLSASLGGKVTITCKASQDINKFIAWYQHKPGKGPRLLIHHTSTLMPGIPSRFSGSGSGREYSFSISNLEPEDIATYYCLQYDNLLWTFGGGTKLEIR" readout_number=100
binder="anti-IL18BP antibody BP-10 (antibody, human IgG1, V domains shown) VH: QVQLQQPGAERVEPGASVRLSCKTSGYTFTNYWMHWVKQRPGQGLEWIGMIHPESGSTNNNEKFKSKATLTVDKSSSTAYMQLSSLTSEDSAVYYCARWDRGYFDYWGQGTTLTVSS VL: DIVMTQSHKFMSTSVGDRVSITCKASQDVRSTVGWYQQRPGQSPKLLIYWTSTRHTGVPDRFTGSGSGTDYTLTISSVQAEDLALYYCQQHYSTPYTFGGGTTLEIK" readout_number=55.2
binder="anti-IL18BP antibody BP-12 (antibody, human IgG1, V domains shown) VH: EVQLQQSGPELVKPGASVKMSCKTSGYTFTEYTMHWVKQSHGKSLEWIGGVNPNNGGTTYNQKFRDKATLTVDKSSSTTYMEVRTLTSDDSAVYYCAPLWRVFDYWGQGTTLTVSS VL: DIVMTQSHKFMSSSVGDRVSITCKASQDVGTAVAWYQQKPGQSPKLLIYWASTRHTGVPDRFTGSGSGTDFTLTISNVQSEDLADYFCHQFSRYPLTFGAGTKLELK" readout_number=76.5

Just for reference, patent US20250333523A1 is where these values come from.
